Data credit: ChEMBL document CHEMBL1157539

system: HepG2; assay: GSK_TCMDC: Percent inhibition of human HepG2 cell line. Test compounds present at 10uM.; assay type: functional
Documented Inhibition across a set of compounds
The response must be a number in % with no trailing unit.

Please review the entries below; each comes with its answer.
- Cc1[nH]c2cc(F)ccc2c1C1=CCN(CCCCC2(C)C(=O)Nc3c(F)cccc32)CC1 (stereo not given): 15
- Cc1[nH]c2ccccc2c1C1=CCN(CCN2CCOc3c(Br)cccc3C2=O)CC1: 15
- O=C(NC1CCC(CN2CCC(c3c[nH]c4ccccc34)CC2)CC1)c1cnn(-c2ccccc2)c1-c1ccccc1Cl (stereo not given): 66
- Cl.NCC(=O)c1cc2c(cc1N)OCCO2: 64

Could you now look at the following compound, please?
Value (Inhibition, HepG2) for record Cc1cc(N)nc2ccc(CNCCc3ccccc3Br)cc12.Cl = 28

====

system: Plasmodium falciparum; experiment: GSK_TCMDC: Inhibition of Plasmodium falciparum Dd2 in whole red blood cells, using parasite LDH activity as an index of growth. Test compounds present at 2uM; format: functional
Documented Inhibition across a set of compounds
The response must be a number in % with no trailing unit.

Please review the entries below; each comes with its answer.
• Cc1c2ccncc2c(C)c2c1[nH]c1ccccc12 = 97
• COC(=O)CN(C(=O)/C=C/c1ccc(Cl)c(Cl)c1)C1CCC(CN2CCC(c3c[nH]c4ccccc34)CC2)CC1 (centres undefined) = 69

What the record says about C/C=C1\CN2CC[C@H]1C[C@H]2[C@H](O)c1ccnc2ccc(OC)cc12 : Inhibition is 45

What the record says about O=C(NC1CCN(CCc2c[nH]c3ccc(F)cc23)CC1)c1ncc(-c2ccccc2)[nH]1.O=C(O)C(F)(F)F : Inhibition is 69

What the record says about CC(Cc1ccc(OCCCCOc2ccccc2)cc1)NCCCn1ccnc1 (centres undefined) : Inhibition is 100

What the record says about CN1CCN(c2ccc3[nH]c(-c4ccc5[nH]c(-c6ccc(O)cc6)nc5c4)nc3c2)CC1.Cl.O : Inhibition is 100

What the record says about Cc1[nH]c2ccccc2c1C1=CCN(CCCCC23CCCc4cccc(c42)NC3=O)CC1 (centres undefined) : Inhibition is 91

What the record says about CC(Cc1ccc(OC2CCCCC2)cc1)NCC(O)c1cccc(Cl)c1.Cl (centres undefined) : Inhibition is 99

What the record says about CN(c1cc(NC(=O)c2ccc(F)cc2)ccn1)C1CCN(Cc2ccc(C#N)cc2)CC1.O=C(O)C(F)(F)F : Inhibition is 54

====

system: HepG2; assay: GSK_TCMDC: Percent inhibition of human HepG2 cell line. Test compounds present at 10uM.; assay type: functional
Binary label based on Inhibition with cut-off 10%: below gives met, not below gives not met.

Some solved cases for reference:
* CC1=CC(=O)[C@@H](O)[C@]2(C)[C@H]3[C@@]4(O)OC[C@@]35[C@@H](C[C@@H]12)OC(=O)C[C@H]5[C@@H](C)[C@H]4O | not met
* CNCC(O)c1cc(Cl)c(Cl)cc1C.Cl (stereo not given) | met
* Cl.O=C(/C=C/c1ccc(Cl)c(Cl)c1)NC1C2CCC1CC(CN1CCC(c3c[nH]c4ccccc34)CC1)C2 (stereo not given) | not met

I'd appreciate it if you could check whether COC(=O)c1ccc(CC(C)NCC(O)c2cccc(C(F)(F)F)c2)cc1C (stereo not given) has Inhibition smaller than 10%.
met
